# Assayed System: HLA-A*32:15
# Measurement Description: IEDB peptide-MHC binding, purified MHC/competitive/fluorescence; filed as Kd, often an IC50 or EC50 that approximates it; bounds were set here for any values at or beyond the usual limits of such assays
# Condition Details: source organism: Mammarenavirus juninense
pKd: −log10 of the molar value.
Property: pKd

{"Chain": "KLMDVVYSI", "Assayed System": "HLA-A*32:15", "Readout Value": 7.25}

====

# Assayed System: HLA-A*30:01
# Measurement Description: IEDB peptide-MHC binding, purified MHC/competitive/radioactivity; filed as Kd, often an IC50 or EC50 that approximates it; bounds were set here for any values at or beyond the usual limits of such assays
# Condition Details: source organism: Dengue virus 3 Martinique/1243/1999

{"Chain": "LARWGTFKK", "Kd (nM)": 316}
{"Chain": "RIKQQGIFG", "Kd (nM)": 19.9}

Cited source: the Immune Epitope Database (IEDB)
